Listing: IC50 of selected compounds
tested_system: Prostaglandin G/H synthase 1 (Ovis aries)
test_description: Inhibition of ovine COX-1 using arachidonic acid as substrate preincubated with enzyme for 5 mins followed by substrate addition by colorimetric analysis
Just the number please, in µM, no unit attached.

COc1cc(Cc2n[nH]c(=S)n(/N=C/c3cc4cc(C)ccc4nc3O)c2=O)cc(OC)c1OC 11.5
COc1cc(Cc2n[nH]c(=S)n(/N=C/c3cc4ccc(OCc5ccccc5)cc4nc3Cl)c2=O)cc(OC)c1OC 7.7
COc1ccc2cc(/C=N/n3c(=S)[nH]nc(Cc4cc(OC)c(OC)c(OC)c4)c3=O)c(O)nc2c1 9.7

// next entry
## Task IC50 lookup needed for COc1cc(Cc2n[nH]c(=S)n(/N=C/c3cc4cc(C)ccc4nc3O)c2=O)ccc1O , thanks.
## Result 10.3

----------
tested_system: Prostaglandin G/H synthase 1 (Ovis aries, UniProt P05979)
Sequence (P05979 whole entry): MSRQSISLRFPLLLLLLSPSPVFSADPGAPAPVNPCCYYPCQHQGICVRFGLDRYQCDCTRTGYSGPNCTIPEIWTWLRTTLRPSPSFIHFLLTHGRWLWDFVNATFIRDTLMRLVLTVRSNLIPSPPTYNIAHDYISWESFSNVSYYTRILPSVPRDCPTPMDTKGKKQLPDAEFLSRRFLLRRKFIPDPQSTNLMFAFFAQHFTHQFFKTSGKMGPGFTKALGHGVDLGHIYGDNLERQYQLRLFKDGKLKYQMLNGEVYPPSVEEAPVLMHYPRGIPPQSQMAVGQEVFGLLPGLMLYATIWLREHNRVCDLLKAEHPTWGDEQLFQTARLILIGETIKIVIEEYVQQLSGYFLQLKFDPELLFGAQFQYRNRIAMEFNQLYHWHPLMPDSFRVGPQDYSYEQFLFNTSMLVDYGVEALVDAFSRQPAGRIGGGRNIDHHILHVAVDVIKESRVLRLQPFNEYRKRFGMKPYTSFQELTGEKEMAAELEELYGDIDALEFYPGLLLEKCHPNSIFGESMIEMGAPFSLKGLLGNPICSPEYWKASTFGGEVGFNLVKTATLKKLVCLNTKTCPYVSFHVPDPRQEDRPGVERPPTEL
test_description: Inhibition of ovine COX-1 using arachidonic acid as substrate preincubated with enzyme for 5 mins followed by incubation with substrate for 5 mins by colorimetric analysis
measured_attribute: pIC50
Expect pIC50 as a plain number equal to -log10 of the molar concentration.

## Task pIC50 lookup needed for COc1ccc(-c2nn(-c3ccc(Cl)cc3)cc2/C=C/c2cc(C(=O)N3CCOCC3)c3cc(Cl)ccc3n2)cc1 , thanks.
## Result 4.94

----------
test_description: Inhibition of soybean 15-LOX using arachidonic acid or linolenic acid as substrate in presence of hydrogen peroxide incubated for 5 mins by colorimetric analysis
Set-up: species or system Glycine max
Label met when IC50 < 3000 nM; otherwise not met.

Cc1ccc2nc(O)c(/C=N/n3c(=S)[nH]nc(Cc4ccccc4)c3=O)cc2c1 met
COc1ccc2cc(/C=N/n3c(=S)[nH]nc(Cc4ccccc4)c3=O)c(O)nc2c1 met

## Task Lab log: compare recorded IC50 with 3000 nM; is it strictly lower for CC(C)Oc1ccc2nc(O)c(/C=N/n3c(=S)[nH]nc(Cc4ccccc4)c3=O)cc2c1 ?
## Result not met

## Task Lab log: compare recorded IC50 with 3000 nM; is it strictly lower for COc1cc(Cc2n[nH]c(=S)n(/N=C/c3cc4ccc(OCc5ccccc5)cc4nc3Cl)c2=O)cc(OC)c1OC ?
## Result not met

## Task Lab log: compare recorded IC50 with 3000 nM; is it strictly lower for O=c1c(Cc2ccccc2)n[nH]c(=S)n1/N=C/c1cc2cc(OCc3ccccc3)ccc2nc1O ?
## Result met

----------
test_description: Inhibition of soybean 15-LOX using arachidonic acid or linolenic acid as substrate in presence of hydrogen peroxide incubated for 5 mins by colorimetric analysis
Parameters: species or system Glycine max
Listing: pIC50 of selected compounds
Expect pIC50 as a plain number equal to -log10 of the molar concentration.

Sample answers from the record:
COc1cc(Cc2n[nH]c(=S)n(/N=C/c3cc4cccc(C)c4nc3Cl)c2=O)cc(OC)c1OC 5.73
COc1cc(Cc2n[nH]c(=S)n(/N=C/c3cc4cc(C)ccc4nc3O)c2=O)ccc1O 5.71
Cc1ccc2nc(O)c(/C=N/n3c(=S)[nH]nc(Cc4cccs4)c3=O)cc2c1 5.62
COc1ccc2nc(O)c(/C=N/n3c(=S)[nH]nc(Cc4cc(OC)c(OC)c(OC)c4)c3=O)cc2c1 5.59

## Task pIC50 lookup needed for COc1ccc2nc(O)c(/C=N/n3c(=S)[nH]nc(Cc4ccccc4)c3=O)cc2c1 , thanks.
## Result 5.71

## Task pIC50 lookup needed for COc1ccc2cc(/C=N/n3c(=S)[nH]nc(Cc4cc(OC)c(OC)c(OC)c4)c3=O)c(O)nc2c1 , thanks.
## Result 5.66

## Task pIC50 lookup needed for O=c1c(Cc2cccs2)n[nH]c(=S)n1/N=C/c1cc2ccccc2nc1O , thanks.
## Result 5.67

## Task pIC50 lookup needed for O=c1c(Cc2ccccc2)n[nH]c(=S)n1/N=C/c1cc2ccccc2nc1O , thanks.
## Result 5.67

## Task pIC50 lookup needed for COc1cc(Cc2n[nH]c(=S)n(/N=C/c3cc4cc(C)ccc4nc3O)c2=O)cc(OC)c1OC , thanks.
## Result 5.69
